Assay: qHTS for Inhibitors of Inflammasome Signaling: IL-1-beta AlphaLISA Primary Screen; also: % is scaled to controls: 0 for no effect and ±100 for the full control effect
Details: THP-1 LPS/ATP IL-1B secretion, 16 h; at 57.5 µM, stronger effect = lower value
Text: Inflammasomes are a set of intracellular multi-protein complexes that enable autocatalytic activation of inflammatory caspases and drive the innate immune response to counter harmful agents. […] A qHTS assay, based on AlphaLISA technology, was developed to screen the Molecular Libraries Small Molecule Repository (MLSMR) to look for novel inflammasome inhibitors. The assay detects IL-1B using AlphaLISA anti-IL-1B acceptor and donor beads. […]
The whole screen tested about 360,000 compounds, of which about 17,000 (4.7%) were called active. Inconclusive results (about 5%) are left out. Many of the other results were omitted from the sample, so actives are more common in it than they were.
The molecules listed here are annotated with their activity change.
Response body: numeric value in %, unit text excluded.

Example results:
Nc1[nH]c(C(=O)c2ccccc2)c(-c2ccc(Br)cc2)c1C(=O)NC1CC1 = 12
COc1ccccc1C(=O)N(C1=NC(C)CS1)c1ccc(Cl)cc1 (stereo unspecified) = -80.7
O=C1NC(=O)C(CCc2ccccc2)(c2ccccc2)N1 (stereo unspecified) = -4.4

Suppose we examine the molecule COc1ccc2c(C)c(CCC(=O)NC3CC3)c(=O)oc2c1C ; what activity change value has been reported? -19.2

Suppose we examine the molecule COc1ccc(C(=O)c2oc3ccc(Br)cc3c2NC(C)=O)cc1 ; what activity change value has been reported? -26.9

###

Test: qHTS for Inhibitors of Inflammasome Signaling: IL-1-beta AlphaLISA Primary Screen
Settings: THP-1 LPS/ATP IL-1B secretion, 16 h; at 57.5 µM, stronger effect = lower value
In all, about 360,000 compounds went through this assay and about 17,000 (4.7%) were called active. Roughly 5% stayed inconclusive and do not appear here. This excerpt belongs to a sample that is enriched for actives.
The molecules listed here are annotated with their activity change.
Response body: numeric value in %, unit text excluded.

Cn1c(SCC(=O)Nc2ccc(Br)cc2F)nnc1-c1ccco1 = -12.1

Next:
Suppose we examine the molecule Cc1cc(C)nc(SCc2ccccc2C#N)n1 ; what activity change value has been reported? -12.7

###

Assay: qHTS for Inhibitors of Inflammasome Signaling: IL-1-beta AlphaLISA Primary Screen
Details: THP-1 LPS/ATP IL-1B secretion, 16 h; at 57.5 µM, stronger effect = lower value
About 17,000 (4.7%) of roughly 360,000 compounds were called active. Another 5% or so got no clear call; they are omitted. The full list was thinned out, with actives kept by preference.
The compounds listed here are annotated with their activity change.
Response body: numeric value in %, unit text excluded.

Example results:
COc1ccc2nc(C)cc(Nc3cccc(C(=O)O)c3)c2c1 = 10.8
Cc1nc(/N=C(\N)NC(=O)NC2CCCCC2)nc2ccccc12 = -104
COc1ccc2nc(/N=C(\N)NC(=O)Nc3ccccc3)nc(C)c2c1 = -80.5
CCN(C(=O)COC(=O)c1cc(NS(=O)(=O)c2ccc(Cl)c([N+](=O)[O-])c2)ccc1O)C1CCCCC1 = -98.5
COc1cccc(NC(=O)Nc2ccc(F)cc2)c1 = -27.3

Next:
Suppose we examine the compound CC(C)c1cc(C(=O)NC2CCCCCC2)c2ccccc2n1 ; what activity change value has been reported? 0.331

###

Experiment: qHTS for Inhibitors of Inflammasome Signaling: IL-1-beta AlphaLISA Primary Screen
Conditions: THP-1 LPS/ATP IL-1B secretion, 16 h; at 57.5 µM
About 17,000 (4.7%) of roughly 360,000 compounds were called active. Inconclusive results (about 5%) are left out. Cut-off read from the data, not from the text of the source: active = activity change below about -50%; inconclusive = mostly about -30% to -49%; inactive = weaker than that. The sample holds actives, similar compounds and a random draw of the others, so the mix is not that of the screen.
Please answer using one outcome listed in 1 (active), -1 (inactive)

Below are worked cases with known answers.
COc1ccc2c(c1)C(=O)CC(c1ccccc1)O2 (configuration not stated) = -1
CC(C)OC(=O)c1ccc(NCc2cc(O)ccc2O)cc1Cl = -1
CN(C(=O)CCN1C(=O)/C(=C/c2ccccc2F)SC1=S)C1CCS(=O)(=O)C1 (configuration not stated) = 1
CS(=O)(=O)Nc1cccc(-c2cn3ccccc3n2)c1 = -1
O=C(OC12CC3CC(CC(C3)C1)C2)c1ccc(NCc2cc(O)ccc2O)cc1 = 1
CCOC(=O)CCCNC(=O)COC(=O)/C=C/c1ccc2c(c1)OCO2 = -1
CC1CCCC(C)N1C(=O)COC(=O)c1ccccc1C(=O)c1ccccc1 (configuration not stated) = -1
COCCn1cnc2c1c(=O)n(Cc1ccc(Br)cc1)c(=O)n2Cc1ccccc1 = 1

What is the recorded call for this molecule in the test? CC1CCN(c2ccc3c(c2)S(=O)(=O)c2cc(C(=O)O)ccc2C3=O)CC1 -1

What is the recorded call for this molecule in the test? CN(C(=O)CN1C(=O)S/C(=C\c2ccccc2F)C1=O)C1CCS(=O)(=O)C1 (configuration not stated) -1

What is the recorded call for this molecule in the test? CCCc1cc(=O)n2[nH]c(SCc3ccccc3)nc2n1 -1

What is the recorded call for this molecule in the test? COC(=O)c1ccc(NCC(=O)c2ccccc2)cc1 -1

What is the recorded call for this molecule in the test? OC(c1cc(Cl)cc(Cl)c1)c1ncc(-c2ccccc2C(F)(F)F)[nH]1 (configuration not stated) -1

What is the recorded call for this molecule in the test? COc1cccc(CNc2nc3nc4c(c(=O)n3[nH]2)CCC4)c1 -1

What is the recorded call for this molecule in the test? CCOc1ccc(S(=O)(=O)NCCC(=O)NCC(C)(C)N2CCOCC2)cc1 -1

What is the recorded call for this molecule in the test? COC(=O)c1ccc(NCc2cc(O)ccc2O)cc1 1

What is the recorded call for this molecule in the test? CN(Cc1ccccc1)C(=O)COC(=O)/C=C/c1ccc2c(c1)OCO2 1

What is the recorded call for this molecule in the test? Cc1cc(C)cc(NS(=O)(=O)Cc2ccccc2)c1 -1

What is the recorded call for this molecule in the test? CC(C)(C)Cc1c(C2CCCCC2)nc2ccc(Br)cn12 -1

What is the recorded call for this molecule in the test? CC(C)CCn1cnc2c1c(=O)n(CC(=O)NC(N)=O)c(=O)n2Cc1ccccc1 -1

What is the recorded call for this molecule in the test? CN(C)C(CNC(=O)c1cccc(S(=O)(=O)N2CCc3ccccc3C2)c1)c1ccccc1 (configuration not stated) -1

What is the recorded call for this molecule in the test? CCS(=O)(=O)Nc1cccc(-c2cc(-c3ccccc3)c3cc(C)ccc3n2)c1 1
